Ref: patent US20260242478A1

Attribute: Phage binding ELISA signal, Anti-PSMA Fab in the presence of PSMA antigen
tgt: T1, 006 PSMA Fab
T1 construct: In the panning ELISA the PSMA Fab was biotinylated and captured on neutravidin coated plates; also called Anti-PSMA Fab; anti-PSMA Fab
experimental details: clonal phage ELISA on captured PSMA Fab pre-incubated with PSMA antigen as competitor, anti-M13 HRP detection;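 further: crude clonal phage supernatants tested by ELISA, wells first treated with blocking buffer plus PSMA antigen, bound phage read out via HRP-linked anti-M13 antibody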
quantity name: Phage binding ELISA signal, Anti-PSMA Fab in the presence of PSMA antigen

binder: VSIMCTPLWMCEGF [Phage-3090]
measurement: 0.0782
//
binder: VVPRCEPMWMCQGF [Phage-3088]
measurement: 0.0982
//
binder: TELACKPLWMCNGF [Phage-3091]
measurement: 0.0691
//
binder: MGPVCKPAWMCLEF [Phage-3099]
measurement: 0.109
//
binder: PMPVCVPMWMCYGF [Phage-3100]
measurement: 0.0842
//
binder: TGAICVPEWMCMGF [Phage-3092]
measurement: 0.0934
//
binder: GAMVCKPAWMCQGF [Phage-3094]
measurement: 0.0731
//
binder: QGRVCEPSWMCTGF [Phage-3096]
measurement: 0.0561
//
binder: VEPYCKPAWMCTGF [Phage-3093]
measurement: 0.11
//
binder: MERMCRPAWMCTAF [Phage-3097]
measurement: 0.107
//
binder: TDQLCKPLWMCTGF [Phage-3089]
measurement: 0.0815
//
binder: YDFRCIPSWMCMGI [Phage-3095]
measurement: 0.0693
//
binder: ILPQCVPAWMCSGF [Phage-3101]
measurement: 0.0784
//
binder: EHILCRPVWMCEGF [Phage-3098]
measurement: 0.101
